// values below are GI50; system is HCT-15
Record the value in µM, omitting the unit from your answer.

Recall the reported GI50 of COC1=C2CC(C)CC(OC)C(OC(=O)CCCN)C(C)/C=C(\C)C(OC(N)=O)C(OC)/C=C\C=C(/C)C(=O)NC(=CC1=O)C2=O (centres undefined) on HCT-15 and write it down. 4.97

Would you please give the reported GI50 of C[C@]12C/C(=C/O)C(=O)C(O)=C1CC[C@@H]1C2CC[C@@]2(C)C1CC[C@@H]2O (some centres undefined) with HCT-15? 21.5

----------
test system: OVCAR-3; test: NCI tumour cell line growth inhibition, 48 h
Activity calls are given as the source filed them. Rule as the data show it: active = GI50 up to about 1.1 µM and inactive = higher.
Outcome field: choose from True = active, False = inactive

As a guide, the following entries are already answered.
What did the test return for COc1ccc2oc(-c3ccncc3)cc(=O)c2c1 ? False

Which outcome did this test record for the compound O=C(CSc1ncnc2[nH]cnc12)c1ccccc1 ? False

How did this test come out for COC(=O)C1CC2CC(=NNC(N)=O)CC2C1 (stereo not drawn) ? False

Others:
What classification did C=C1C[C@@H]2CC[C@@]34CC5O[C@H]6C(O[C@H]7CC[C@H](CC(=O)O[C@@H]8[C@@H](C)[C@@H]9O[C@@H]%10C[C@]%11(C[C@@H]%12O[C@]%13(C[C@H](C)[C@@H]%14O[C@@H]%15CC(C(O)CO)O[C@@H]%15C[C@@H]%14O%13)C[C@H](C)[C@@H]%12O%11)O[C@@H]%10C[C@@H]9O[C@H]8CC8O[C@@H](CC[C@@H]1O2)C[C@@H](C)C8(O)CO)O[C@@H]7[C@@H]6O3)[C@H]5O4 (stereo partly drawn) end up with in this test? True

Kindly provide the recorded test outcome for the following compound: Oc1ccc([C@H]2c3c(O)cc(O)cc3C3c4c(cc(O)cc4[C@@H]2[C@H]2c4cc(O)cc5c4C(c4cc(O)cc(O)c4[C@@H]2c2ccc(O)cc2)[C@@H](c2ccc(O)cc2)O5)O[C@@H]3c2ccc(O)cc2)cc1 (stereo partly drawn) True

Per the records of this test, what outcome belongs to O=c1c2c(nc3[nH]ccn13)CCC2 ? False

Call for entry CCCCOCc1cc(CN2CCN(C)CC2)c(O)c2ncccc12 : False

Fill in: this test's call for COc1cc(/C=C(\NC(=O)c2ccccc2)c2nc3cc([N+](=O)[O-])ccc3[nH]2)cc(OC)c1OC is ___ False

----------
test system: OVCAR-8; assay: NCI tumour cell line growth inhibition, 48 h
Calls of active or inactive are those of the source. No stated cut-off is given here; in the data, active = GI50 up to about 1.1 µM and inactive = higher.
Outcomes you can answer with include only these: active, inactive

# lookup: test call for Cc1cc2c(cc1Cl)SC(c1ccccc1)C(=O)NS2(=O)=O (configuration not stated) inactive

Each compound tested received a call. Report the one for COC(=O)C1CC2CC(=NNC(N)=O)CC2C1 (configuration not stated) . inactive

GET /call?item= CN(C)/C=N/c1ccc2nonc2c1 returns the recorded outcome of this test. inactive

// param item: O=C1/C(=C/c2ccccc2)NC(=S)N1CN1CCCCC1 ; yields the recorded call inactive

Given OCC(O)COc1ccc(F)cc1 (configuration not stated) , state the outcome it received in this test. inactive

Continuing:
In this assay, the call recorded for COc1ccc2c(c1)c1c(C)c3cnccc3c(C)c1n2CCCN was what? active

Would you mind telling me which call this test gave COc1ccc(C2OC[C@H]3O[C@@H](OCc4ccccc4)[C@H](O)[C@@H](O)[C@@H]3O2)cc1 (some centres not stated) ? inactive
